Examples of molecules with documented Emax follow.
Target: CB1 (Rattus norvegicus, UniProt P20272)
Construct: membrane preparations from rat brain (source of CB1); tissue Bioivt RAT00BRAINMZN; host or cells: rat brain
Sequence (P20272 whole entry): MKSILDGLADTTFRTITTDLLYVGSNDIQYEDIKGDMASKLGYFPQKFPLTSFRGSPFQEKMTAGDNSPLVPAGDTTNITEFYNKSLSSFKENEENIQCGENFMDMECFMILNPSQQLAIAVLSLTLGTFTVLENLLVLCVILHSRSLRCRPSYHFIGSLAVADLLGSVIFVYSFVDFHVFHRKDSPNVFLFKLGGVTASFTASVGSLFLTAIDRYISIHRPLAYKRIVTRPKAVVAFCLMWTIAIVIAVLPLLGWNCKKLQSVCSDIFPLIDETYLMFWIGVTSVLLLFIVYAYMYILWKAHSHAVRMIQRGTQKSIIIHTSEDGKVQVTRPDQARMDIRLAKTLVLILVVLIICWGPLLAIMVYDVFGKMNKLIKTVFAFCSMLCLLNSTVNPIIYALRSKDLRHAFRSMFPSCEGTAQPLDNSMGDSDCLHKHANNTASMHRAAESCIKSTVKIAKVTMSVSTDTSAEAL
Test: Radioligand competition binding with [3H]-CP-55,940, rat brain membranes
Conditions: maximal radioligand displacement; read-out: rCB1 binding Emax [SEM]
Experimental: The results were analyzed using nonlinear regression to determine the IC50 and Ki values for each ligand (Prism by GraphPad Software, Inc., San Diego, CA). The Ki values are expressed as the mean of two to three experiments each performed in triplicate.
Note: unit % is implicit; provide only the numeric part.

Would you please look over these solved cases?
molecule=Cc1cc(C(=O)NC(C)(c2ccco2)c2ccco2)nn1-c1cccc(C(F)(F)F)c1 reported=88
molecule="Cc1nn(Cc2ccc(Cl)cc2)c(C)c1C(=O)OCC1CSc2ccccc2O1 (stereo not drawn)" reported=88

Continue with the next molecule.
Exercise: Recorded Emax of COC(=O)C(NC(=O)c1cc(-c2ccccc2)n(-c2cccc(C(F)(F)F)c2)n1)c1cccs1 (stereo not drawn) , please.
Solution: 104

====

Biological target: hCB2 (Homo sapiens)
Test: TRUPATH BRET2 GoA dissociation assay, HEK293T
Format: cell-based
Parameters: expressed in transfected cells; host or cells: HEK293T (transient)
Settings: HEK-293T, read-out: hCB2 BRET2 + GoA Emax [95% CI]
Procedure: […]. GoA dissociation BRET2 assays were performed as previously described with minor modifications. In brief, HEK293T cells were co-transfected overnight with human CB2 receptor, GαoA-Rluc, Gβ3, and Gγ9-GFP2 constructs. […] Each experiment was performed in triplicate and functional IC50 values were determined from the mean of four independent experiments.
Measured Emax, listed per entry for reference.
The reply should be a number in %, with the unit left off.

Some entries whose results are on file:
compound="COC(=O)C(NC(=O)c1cc(C)n(-c2cccc(C(F)(F)F)c2)n1)c1cccs1 (stereo not shown)" assayed_system="hCB2 (Homo sapiens)" reported=31
compound="COC(=O)C(C)(NC(=O)c1cc(C)n(-c2cccc(C(F)(F)F)c2)n1)c1cccs1 (stereo not shown)" assayed_system="hCB2 (Homo sapiens)" reported=29
compound=COC(=O)[C@@H]1[C@@H]2CCC[C@@H]2CN1C(=O)c1cc(C)n(-c2cccc(C(F)(F)F)c2)n1 assayed_system="hCB2 (Homo sapiens)" reported=81

Next compound, please.
Exercise: Looking for the measured Emax of CCCCCCC(C)(C)c1ccc([C@@H]2C[C@H](O)CC[C@H]2CCCO)c(O)c1 [CP-55,940, reference compound] , can you help?
Solution: 99

====

Target: hCB1 (Homo sapiens)
Test: bioSens-All ebBRET effector biosensor signaling profiling, HEK293
Type: cell-based
Parameters: host or cells: HEK293 (HEK293SL clone), transient
Conditions: HEK293, read-out: hCB1 Gi1 Emax [95% CI]
Would you mind sorting the entries by Emax according to these classes? bottom bin = under 70%, middle bin = from 70% up to 90%, top bin = 90% and over

# count of solved cases: 5
compound="Cc1cc(C(=O)N2CC3(CCC3)[C@H]2[C@@H]2CCCO2)nn1-c1cccc(C(F)(F)F)c1 [‘3737a]" assayed_system="hCB1 (Homo sapiens)" cat="top bin"
compound="Cc1cc(C(=O)NC(c2ccccc2)c2ccco2)nn1-c1cccc(C#N)c1 (centres unmarked)" assayed_system="hCB1 (Homo sapiens)" cat="bottom bin"
compound="Cc1nn(Cc2ccc(Cl)cc2)c(C)c1C(=O)OCC1CSc2ccccc2O1 (centres unmarked)" assayed_system="hCB1 (Homo sapiens)" cat="bottom bin"
compound="COC(=O)C(C)(NC(=O)c1cc(C)n(-c2cccc(C(F)(F)F)c2)n1)c1cccs1 (centres unmarked)" assayed_system="hCB1 (Homo sapiens)" cat="top bin"
compound=Cc1cc(C(=O)NC(c2ccco2)c2ccco2)nn1-c1cccc(C(F)(F)F)c1 assayed_system="hCB1 (Homo sapiens)" cat="middle bin"

Exercise: # bin label for `Cn1nc(-c2nnc(C(C)(C)Oc3ccc(Cl)cc3)o2)c2ccccc2c1=O`
Solution: bottom bin

Exercise: Field entry: `COC(=O)[C@@H]1[C@@H]2CCC[C@@H]2CN1C(=O)c1cc(C)n(-c2cccc(C(F)(F)F)c2)n1`
Solution: top bin

Exercise: Queued: `COC(=O)[C@](C)(NC(=O)c1cc(C)n(-c2cccc(C(F)(F)F)c2)n1)c1cccs1`
Solution: middle bin

Exercise: Same for `COC(=O)[C@@H]1[C@@H]2CCC[C@@H]2CN1C(=O)c1cc(C)n(-c2cccc(Cl)c2)n1`
Solution: middle bin

Exercise: What do we get for Cc1cc(C(=O)NC(c2ccccc2)c2ccco2)nn1-c1cccc(C(F)(F)F)c1 (centres unmarked) ?
Solution: bottom bin

Exercise: How about this compound: Cc1c(C(=O)OCC2CSc3ccccc3O2)cnn1Cc1ccccc1 (centres unmarked)
Solution: bottom bin

Exercise: Follow-up entry: COC(=O)C(NC(=O)c1cc(C)n(-c2cccc(F)c2)n1)c1cccs1 (centres unmarked)
Solution: middle bin

====

Biological target: hCB2 (Homo sapiens)
Experiment: bioSens-All ebBRET effector biosensor signaling profiling, HEK293
Type: cell-based
Parameters: host or cells: HEK293 (HEK293SL clone), transient
Conditions: hCB2 Barr2 + GRK2 EC50 [95% CI]
readout.type: EC50
Number first, unit second.

Exercise: Observed EC50 on hCB2 (Homo sapiens) for COC(=O)C(C)(NC(=O)c1cc(C)n(-c2cccc(C(F)(F)F)c2)n1)c1cccs1 (stereo not shown) , please.
Solution: 5.5 nM

====

# pEC50 annotations
Target: hCB1 (Homo sapiens, UniProt P21554)
Sequence (P21554 whole entry): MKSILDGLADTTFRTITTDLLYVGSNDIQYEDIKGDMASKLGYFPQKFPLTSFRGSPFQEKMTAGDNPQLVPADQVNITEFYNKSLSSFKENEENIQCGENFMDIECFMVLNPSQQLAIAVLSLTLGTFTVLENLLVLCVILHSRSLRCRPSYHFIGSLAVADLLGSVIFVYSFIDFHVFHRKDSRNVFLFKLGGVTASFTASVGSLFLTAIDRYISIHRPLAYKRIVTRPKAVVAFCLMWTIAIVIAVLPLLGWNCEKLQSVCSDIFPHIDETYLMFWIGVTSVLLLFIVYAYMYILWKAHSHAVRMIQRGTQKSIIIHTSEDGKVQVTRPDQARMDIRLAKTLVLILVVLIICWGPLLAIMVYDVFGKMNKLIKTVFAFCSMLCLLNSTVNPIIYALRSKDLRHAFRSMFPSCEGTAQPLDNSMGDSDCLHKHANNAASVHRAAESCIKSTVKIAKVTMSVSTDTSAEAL
Assay: Tango β-arrestin-2 recruitment assay, HTLA cells
Type: cell-based
Set-up: expressed in transfected cells
pEC50 here is simply -log10 of the concentration when that concentration is written in mol/L.

compound="COC(=O)C(C)(NC(=O)c1cc(C)n(-c2cccc(C(F)(F)F)c2)n1)c1cccs1 (centres unmarked)" assayed_system="hCB1 (Homo sapiens, UniProt P21554)" reported=7.97

For the next question, use this compound.
Exercise: Form field: pEC50 recorded for COC(=O)C(NC(=O)c1cc(C)n(-c2cccc(C(F)(F)F)c2)n1)c1cccs1 (centres unmarked) with hCB1 (Homo sapiens, UniProt P21554) (enter value)
Solution: 6.10

====

Molecular target: hCB2 (Homo sapiens)
Experiment: bioSens-All ebBRET effector biosensor signaling profiling, HEK293
Format: cell-based
Design: host or cells: HEK293 (HEK293SL clone), transient
Conditions: read-out: hCB2 Gz EC50 [95% CI]; Gz sensor
Procedure: ebBRET-based effector membrane translocation biosensor assays were conducted at Domain Therapeutics NA Inc. (Montreal, QC, Canada) as previously described. […] During the incubation, HEK293 cells were detached, counted, and re-suspended in maintenance medium to a 350,000 cells per mL density. […] The data were analyzed using the four-parameter logistic non-linear regression model in GraphPad Prism 9.1 and data were presented as means ± CIs of 1–4 independent experiments. […]
readout.type: pEC50
Schema: pEC50 number; meaning minus log10 of the concentration expressed in molar units.

Exercise: Value lookup for pEC50; key = CCCCC/C=C\C/C=C\C/C=C\C/C=C\CCCC(=O)OC(CO)CO [2-AG, reference compound]
Solution: 5.67

====

Molecular target: hCB2 (Homo sapiens, UniProt P34972)
Sequence (P34972 whole entry): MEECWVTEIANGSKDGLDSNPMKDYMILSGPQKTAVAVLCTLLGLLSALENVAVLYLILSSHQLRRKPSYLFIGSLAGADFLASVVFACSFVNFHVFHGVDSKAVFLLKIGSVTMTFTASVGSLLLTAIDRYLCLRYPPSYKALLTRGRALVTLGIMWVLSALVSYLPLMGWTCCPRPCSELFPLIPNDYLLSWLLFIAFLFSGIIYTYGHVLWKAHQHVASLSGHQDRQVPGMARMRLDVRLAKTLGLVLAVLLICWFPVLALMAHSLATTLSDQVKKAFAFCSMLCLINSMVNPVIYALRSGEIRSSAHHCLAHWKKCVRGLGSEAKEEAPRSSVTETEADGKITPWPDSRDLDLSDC
Assay: bioSens-All ebBRET effector biosensor signaling profiling, HEK293
Type: cell-based
Parameters: host or cells: HEK293 (HEK293SL clone), transient
Conditions: read-out: hCB2 Gi2 EC50 [95% CI]; Gi2 sensor
Experimental: ebBRET-based effector membrane translocation biosensor assays were conducted at Domain Therapeutics NA Inc. (Montreal, QC, Canada) as previously described. […] During the incubation, HEK293 cells were detached, counted, and re-suspended in maintenance medium to a 350,000 cells per mL density. […] The data were analyzed using the four-parameter logistic non-linear regression model in GraphPad Prism 9.1 and data were presented as means ± CIs of 1–4 independent experiments. […]
readout.type: pEC50
Field pEC50 (float): negative decimal logarithm of the concentration in molar.

Exercise: Entry CCCCC/C=C\C/C=C\C/C=C\C/C=C\CCCC(=O)OC(CO)CO [2-AG, reference compound] : reported pEC50 = ?
Solution: 7.02

====

Biological target: UniProtKB P21554
Assay: Lance Ultra cAMP accumulation assay (inhibition of forskolin-stimulated cAMP), CHO cells
Format: cell-based
Parameters: expressed in transfected cells
Settings: CHO, read-out: hCB1 Lance Ultra cAMP Emax [95% CI]
readout.type: Emax (%)
Respond with the bare value in %.

molecule="CCCCCCC(C)(C)c1ccc([C@@H]2C[C@H](O)CC[C@H]2CCCO)c(O)c1 [CP-55,940, reference compound]" reported=85
molecule="COC(=O)C(C)(NC(=O)c1cc(C)n(-c2cccc(C(F)(F)F)c2)n1)c1cccs1 (centres unmarked)" reported=78
molecule=COC(=O)[C@](C)(NC(=O)c1cc(C)n(-c2cccc(C(F)(F)F)c2)n1)c1cccs1 reported=53
molecule=COC(=O)[C@@](C)(NC(=O)c1cc(C)n(-c2cccc(C(F)(F)F)c2)n1)c1cccs1 reported=77

Would you kindly look at the next entry?
Exercise: Recorded Emax of COC(=O)C(NC(=O)c1cc(C)n(-c2cccc(C(F)(F)F)c2)n1)c1cccs1 (centres unmarked) , please.
Solution: 67
